Data credit: patent US20260200939A1

Some compounds, each annotated with its measured DC50.
Molecular target: BRD4 short (Homo sapiens, UniProt O60885)
Construct: endogenous in cells; host or cells: HEK293T
Test: BRD4 (short) degradation assay, Western blotting
Assay type: cell-based
Details: second value of cell (long/short)
Experimental: C33A cells were purchased from American Type Culture Collection (ATCC) and were cultured in Dulbecco's Modified Eagle Medium (DMEM) containing 10% (v/v) fetal bovine serum (FBS) and maintained at 37° C. with 5% CO2. […] Cells were washed twice with cold PBS, scraped, and pelleted by centrifugation (700 g, 5 min, 4° C.). […] Proteome concentrations were determined using BCA assay and lysate was diluted to appropriate working concentrations. […]

Observe how each entry below is paired with its result.
Compound	Tested Target	Result
COc1ccc(C(=O)/C=C/C(=O)N[C@H]2C[C@H](NC(=O)C[C@@H]3N=C(c4ccc(Cl)cc4)c4c(sc(C)c4C)-n4c(C)nnc43)C2)cn1 [Compound 207]	BRD4 short (Homo sapiens, UniProt O60885)	10 to 100 nM
COc1ccc(C(=O)/C=C/C(=O)N[C@H]2C[C@@H](NC(=O)C[C@@H]3N=C(c4ccc(Cl)cc4)c4c(sc(C)c4C)-n4c(C)nnc43)C2)cn1 [Compound 206]	BRD4 short (Homo sapiens, UniProt O60885)	10 to 100 nM

I would be grateful if you could share the reported DC50 for Cc1sc2c(c1C)C(c1ccc(Cl)cc1)=N[C@@H](CC(=O)N[C@H]1C[C@H](NC(=O)/C=C/C(=O)c3ccccc3)C1)c1nnc(C)n1-2 [Compound 204] .
10 to 100 nM
